Origin of the recorded values: ChEMBL document CHEMBL2069201

Organism: Homo sapiens
Test: Selectivity ratio of IC50 for AKR1C4 to AKR1C3
Reported Ratio IC50 values follow for various molecules
Reply: number alone, nothing else.

Some solved cases for reference:
>>> value_observed("O=C(Nc1ccc(Br)cc1C(=O)O)c1cccc(O)c1")
86
>>> value_observed("O=C(Nc1ccc(Cl)cc1C(=O)O)c1cccc(O)c1")
65

Give recorded Ratio IC50. COc1cc(NC(=O)c2cccc(O)c2)c(C(=O)O)cc1OC 18

* * *

Molecular target: Aldo-keto reductase family 1 member C1 (Homo sapiens, UniProt Q04828)
Sequence (Q04828 whole entry): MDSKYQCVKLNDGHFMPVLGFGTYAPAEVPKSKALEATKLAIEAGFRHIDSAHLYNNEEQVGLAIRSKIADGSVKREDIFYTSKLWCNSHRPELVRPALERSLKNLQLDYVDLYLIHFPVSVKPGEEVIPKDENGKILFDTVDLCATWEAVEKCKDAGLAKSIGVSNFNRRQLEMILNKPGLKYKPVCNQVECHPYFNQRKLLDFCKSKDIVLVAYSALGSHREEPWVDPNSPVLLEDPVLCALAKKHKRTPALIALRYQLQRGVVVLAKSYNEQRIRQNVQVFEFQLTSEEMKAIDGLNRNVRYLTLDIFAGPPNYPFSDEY
Experiment: Inhibition of recombinant AKR1C1 using 1-acenaphthenol as substrate by spectrophotometry
PROPERTY: pIC50
Units for pIC50: none; it is -log10 of a concentration expressed in mol/L.

Some solved cases for reference:
>>> value_observed("CCCCOc1cccc(C(=O)Nc2ccc(Br)cc2C(=O)O)c1")
5.31
>>> value_observed("CCOc1cccc(C(=O)Nc2ccc(Br)cc2C(=O)O)c1")
4.69
>>> value_observed("O=C(Nc1ccc(Br)cc1C(=O)O)c1ccc(F)c([N+](=O)[O-])c1")
5.08

Moving on to another molecule below.
Give recorded pIC50. CCCCOc1cc(C(=O)Nc2ccccc2C(=O)O)ccc1[N+](=O)[O-] 5.49

* * *

Target: UniProtKB P17516
Sequence (P17516 whole entry): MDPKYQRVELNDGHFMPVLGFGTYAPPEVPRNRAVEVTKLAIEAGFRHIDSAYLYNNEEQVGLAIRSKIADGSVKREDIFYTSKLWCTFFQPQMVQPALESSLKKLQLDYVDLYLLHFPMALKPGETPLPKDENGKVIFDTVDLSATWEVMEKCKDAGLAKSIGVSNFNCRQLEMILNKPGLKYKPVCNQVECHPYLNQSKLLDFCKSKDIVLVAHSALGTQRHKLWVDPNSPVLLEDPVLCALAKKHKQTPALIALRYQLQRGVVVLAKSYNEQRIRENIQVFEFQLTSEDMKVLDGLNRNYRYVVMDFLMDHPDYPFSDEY
Experiment: Inhibition of recombinant AKR1C4 using S-tetralol as substrate by fluorimetry
Reported IC50 values follow for various molecules
Express the result in µM but write the number alone.

>>> value_observed("O=C(Nc1ccc(Cl)cc1C(=O)O)c1cccc(O)c1")
20.1
>>> value_observed("O=C(Nc1ccc(Br)cc1C(=O)O)c1cccc(O)c1")
30.3

Give recorded IC50. COc1cc(NC(=O)c2cccc(O)c2)c(C(=O)O)cc1OC 50.9

* * *

Organism: Homo sapiens
Experiment: Selectivity ratio of IC50 for AKR1C2 to AKR1C3
PROPERTY: Ratio IC50

>>> value_observed("COc1cc(NC(=O)c2cccc(O)c2)c(C(=O)O)cc1OC")
10
>>> value_observed("O=C(Nc1ccc(Br)cc1C(=O)O)c1cccc(O)c1")
180
>>> value_observed("O=C(Nc1ccccc1C(=O)O)c1cccc(O)c1")
9

Moving on to another compound below.
Give recorded Ratio IC50. O=C(Nc1ccc(Cl)cc1C(=O)O)c1cccc(O)c1 162

* * *

Target: Aldo-keto reductase family 1 member C2 (Homo sapiens)
Assay: Inhibition of recombinant AKR1C2 using 1-acenaphthenol as substrate at 10 uM by spectrophotometry
PROPERTY: inhibition

Some solved cases for reference:
>>> value_observed("Cc1cc(Cl)cc(C(=O)O)c1NC(=O)c1cccc([N+](=O)[O-])c1")
"22.5%"
>>> value_observed("CCCCOc1cc(C(=O)Nc2ccccc2C(=O)O)ccc1[N+](=O)[O-]")
"58.3%"
>>> value_observed("O=C(Nc1ccc(O)cc1C(=O)O)c1cccc([N+](=O)[O-])c1")
"31.6%"
>>> value_observed("CCCCOc1cccc(C(=O)Nc2ccc(Br)cc2C(=O)O)c1")
"70.5%"
>>> value_observed("O=C(Nc1ccc(Cl)cc1C(=O)O)c1cccc(O)c1")
"6.7%"

Moving on to another compound below.
Give recorded inhibition. O=C(Nc1ccc(Br)cc1C(=O)O)c1ccc(F)c([N+](=O)[O-])c1 33.6%
